Values were extracted from patent US20240360227A1.

We begin with a simple list: items and their reported koff.
Target: Recombinant human his-tagged IGF R extracellular domain protein (human) (UniProt P08069)
Assay: SPR, Ab captured via anti-huIgG Fc, pH 7.4

BINDER	koff / s⁻¹
VRDN-02008 (antibody, V domains shown) VH: QVQLQESGPGLVKPSETLSLTCTVSGYSITGGHLWNWIRQPPGKGLEWIGYISYDGTNNYKPSLKDRVTISRDTSKNQFSLKLSSVTAADTAVYYCARYGRVFFDYWGQGTLVTVSS VL: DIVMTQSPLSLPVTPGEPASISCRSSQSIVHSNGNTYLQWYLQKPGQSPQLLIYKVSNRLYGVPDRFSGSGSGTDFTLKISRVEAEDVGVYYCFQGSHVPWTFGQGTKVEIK	0.0206
VRDN-02020 (antibody, V domains shown) VH: QVQLQESGPGLVKPSETLSLTCTVSGYSITGGYLWNWIRQPPGKGLEWIGYISYDGTNHYKPSLKDRVTISRDTSKNQFSLKLSSVTAADTAVYYCARYGRVFFDYWGQGTLVTVSS VL: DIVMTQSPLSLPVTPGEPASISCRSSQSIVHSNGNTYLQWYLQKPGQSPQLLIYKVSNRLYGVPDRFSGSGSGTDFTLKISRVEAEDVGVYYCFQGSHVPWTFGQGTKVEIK	5.16e-05
VRDN-02041 (antibody, V domains shown) VH: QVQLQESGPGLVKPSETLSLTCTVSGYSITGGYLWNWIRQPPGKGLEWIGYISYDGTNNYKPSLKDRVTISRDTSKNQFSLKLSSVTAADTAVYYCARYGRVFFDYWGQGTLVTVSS VL: DIVMTQSPLSLPVTPGEPASISCRSSQSIVHSNGNTHLQWYLQKPGQSPQLLIYKVSNRLYGVPDRFSGSGSGTDFTLKISRVEAEDVGVYYCFQGSHVPWTFGQGTKVEIK	7.59e-05
VRDN-02035 (antibody, V domains shown) VH: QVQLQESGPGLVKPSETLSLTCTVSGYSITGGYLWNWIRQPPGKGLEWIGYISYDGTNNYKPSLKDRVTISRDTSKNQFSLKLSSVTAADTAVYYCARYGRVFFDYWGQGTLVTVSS VL: DIVMTQSPLSLPVTPGEPASISCRSSQSIHHSNGNTYLQWYLQKPGQSPQLLIYKVSNRLYGVPDRFSGSGSGTDFTLKISRVEAEDVGVYYCFQGSHVPWTFGQGTKVEIK	6.32e-05
VRDN-02065 (antibody, V domains shown) VH: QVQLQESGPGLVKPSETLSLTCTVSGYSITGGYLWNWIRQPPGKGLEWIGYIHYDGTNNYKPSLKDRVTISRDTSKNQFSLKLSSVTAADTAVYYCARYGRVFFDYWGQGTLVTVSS VL: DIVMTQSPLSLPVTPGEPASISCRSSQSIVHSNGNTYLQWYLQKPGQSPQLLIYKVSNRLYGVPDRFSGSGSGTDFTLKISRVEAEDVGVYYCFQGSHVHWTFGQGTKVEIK	2.54e-05
